- System: Saccharomyces cerevisiae;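 further: PSI is a weighted mean of sequencing reads over stability bins, variants kept only with over 10 reads, mCherry proximal and sfGFP distal, peptide attached via GGGS linker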
- method summary: protein stability index of tFT-peptide fusion (C-terminal peptide) (PSI (0-1 scale)); higher = more stable (slower turnover)
- measurement parameters: genetic background: wild type; temperature: 30 C
Overview of recorded protein stability index for various sequences
// no unit, no text: just the number

Record excerpt, results attached:
GGWGCWQAGGLT = 0.744
EKERKIKEREVT = 0.631
VDHRFLWALSSF = 0.751
GGLGGGRRGVGR = 0.664
RSGENTVKPVRQ = 0.658

Query: For the sequence shown here, GVREGCRGGVGA , give the reported protein stability index.
Reply: 0.625

Query: # input sequence: FICYDRILTVYY ; wanted: its protein stability index
Reply: 0.454

Query: Request the reported protein stability index associated with GQVCSWRCVCYL
Reply: 0.674

Query: Can you look up the measured protein stability index of YWGEGGCREGGE for me?
Reply: 0.664

Query: Entry under review: ALYQNWITITRN . Reported protein stability index?
Reply: 0.657

Query: Value lookup for protein stability index; key = PDPSVERFRGLC
Reply: 0.758
